test system: soybean plantlets; assay: High-throughput soybean screening for herbicide tolerance (plantlets); assay type: in vivo, soybean (A3555); set-up: key: 0 for poor tolerance, high damage, low green coloration; 1 for some tolerance, average damage, moderate green coloration; 2 for good tolerance, low damage, high green coloration; conditions: TP17; S-3100 spray five weeks post-transformation, scored day four
quantity: coloration score

| molecule | endpoint.result |
| --- | --- |
| H_N90: microbial HemG protoporphyrinogen oxidase, SEQ ID NO:1 (SEQ ID NO:11 lacking start methionine; variants 18, 19) (protein, listed as Enterobacter cloacae) MKALVLYSTRDGQTHAIASYIASCMKEKAECDVIDLTHGEHVNLTQYDQVLIGASIRYGHFNAVLDKFIKRNVDQLNNMPSAFFCVNLTARKPEKRTPQTNPYVRKFLLATPWQPALCGVFAGALRYPRYRWIDKVMIQLIMRMTGGETDTSKEVEYTDWEQVKKFAEDFAKLSYKKAL | 2 |
| H_N100: microbial HemG protoporphyrinogen oxidase, SEQ ID NO:9 (SEQ ID NO:17 lacking start methionine; variant 20) (protein, listed as Enterobacter cloacae) MKTLILFSTRDGQTREIAAFLASELKEQGIYADVINLNRTEEIAWQEYDRVVIGASIRYGHFHPAVDRFVKKHTETLNSLPGAFFSVNLVARKAEKRTPQTNSYTRKFLLNSPWKPAACAVFAGALRYPRYRWYDRFMIRLIMKMTGGETDTRKEVVYTDWSQVASFAREIVQLTRSSRL | 1 |
| H_N30: microbial HemG protoporphyrinogen oxidase, SEQ ID NO:5 (SEQ ID NO:14 lacking start methionine) (protein, listed as Erwinia toletana) MKALILFSSREGQTREIASYIANSIKEEMECDVFNILRVEQIDWSQYDRVLIGGSIHYGHFHPAVAKFVKRHLHELQQRSSGFFCVNLTARKADKRTPQTNAYMRKFLLQSPWQPDCCAVFAGALRYTRYRWFDRVMIQLIMRMTGGETDTSKEVEYTDWTQVARFAQEFAHLPGKTQ | 1 |
| H_N20: microbial HemG protoporphyrinogen oxidase, SEQ ID NO:2 (SEQ ID NO:12 lacking start methionine) (protein, listed as Pantoea ananatis) MKALILFSTRDGQTQKIASAIADEIKGQQSCDVINIQDAKTLDWQQYDRVLIGASIRYGHFQPVVNEFVKHNLLALQQRVSGFFSVNLTARKPEKRSPETNAYTVKFLAQSPWQPDCCAVFAGALYYPRYRWFDRVMIQFIMRMTGGETDASKEVEYTDWQQVQRFARDFAQLPGKSY | 2 |
| H_N40: microbial HemG protoporphyrinogen oxidase, SEQ ID NO:6 (SEQ ID NO:15 lacking start methionine) (protein, listed as Pectobacterium carotovorum) MKALIVFSSRDGQTRAIASYIANTLKGTLECDVVNVLNANDIDLSQYDRVAIGASIRYGRFHPAVNQFIRKHLTSLQQLPSAFFSVNLTARKPEKRTIQTNAYTRKFLLNSPWQPDLCCVFAGALRYPRYRWFDRVMIQLIMRITGGETDSTKEIEYTDWQQVARFAQDFAQLAAKNPA | 1 |
| H_N50: microbial HemG protoporphyrinogen oxidase, SEQ ID NO:7 (SEQ ID NO:16 lacking start methionine) (protein, listed as Shimwellia blattae) MKTLILFSTRDGQTHKIARHIAGVLEEQGKACELVDLLQPGEPDWSTVECVVLGASIRYGHFHKSFIRFVNTHAQRLNNMPGALFTVNLVARKPEKQSPQTNSYTRKFLAASPWQPQRCQVFAGALRYPRYSWYDRMMIRLIMKMAGGETDTRKEVEYTDWQSVTRFAREIAQLPGETR | 1 |

Values from patent US12123009B2
